- Tested on: PC-3
- ASSAY_METHOD_TEXT: Antiproliferative activity against human PC3 cells assessed as concentration required for total cell growth inhibition after 48 hrs by SRB assay
- Assay type: functional
- TEST_PARAMETERS: PC-3, 48 h
I'd appreciate it if you marked entries Met when TGI is lower than 90 µM and Not met when it is not.

COMPOUND	TEST_SYSTEM	ANSWER_LABEL
COc1cc(/C=C/C2(C)C=CC(=O)O2)cc(OC)c1O (stereo not drawn)	PC-3	Not met
COc1ccccc1/C=C/C1(C)C=CC(=O)O1 (stereo not drawn)	PC-3	Met
O=C1C=CC[C@H](/C=C/c2ccccc2)O1	PC-3	Met
CC1(/C=C/c2ccccc2)C=CC(=O)O1 (stereo not drawn)	PC-3	Met
CC1(/C=C/c2ccc(F)cc2)C=CC(=O)O1 (stereo not drawn)	PC-3	Met
CC1(/C=C/c2ccccc2C(F)(F)F)C=CC(=O)O1 (stereo not drawn)	PC-3	Met
CC1(/C=C/c2ccc(O)cc2)C=CC(=O)O1 (stereo not drawn)	PC-3	Not met

Now consider the entry below.
Problem: For the compound COc1ccc(/C=C/C2(C)C=CC(=O)O2)cc1 (stereo not drawn) , is TGI under 90 µM?
Not met
